- METHOD_DESCRIPTION: Clearance in Sprague-Dawley rat at 5 mg/kg, iv and 20 mg/kg, po by LC-MS/MS analysis
- Type: ADME, organism-based
- CONDITION_CONTEXT: in vivo
QUANTITY_KIND: clearance (mL/min/kg)
Numeric answer only, unit mL/min/kg assumed.

Incoming: Query: clearance; subject: C[C@@]1(O)CC[C@H]2[C@H](CC[C@@H]3[C@@H]2CC[C@]2(C)[C@@H](C(=O)Cn4ncnn4)CC[C@@H]32)C1
Outgoing: 18.3

Incoming: Query: clearance; subject: C[C@@]1(O)CC[C@H]2[C@H](CC[C@@H]3[C@@H]2CC[C@]2(C)[C@@H](C(=O)Cn4cc5ncccc5n4)CC[C@@H]32)C1
Outgoing: 73.3

Query molecule follows.
Incoming: Query: clearance; subject: C[C@@]1(O)CC[C@H]2[C@H](CC[C@@H]3[C@@H]2CC[C@]2(C)[C@@H](C(=O)Cn4cc5ccncc5n4)CC[C@@H]32)C1
Outgoing: 58.3

---

- METHOD_DESCRIPTION: Clearance in mouse liver microsomes at 10 uM after 60 mins by HPLC-MS/MS analysis
- Format: ADME
QUANTITY_KIND: CLhep predicted at 10 µM (mL/min/kg)
Numeric answer only, unit mL/min/kg assumed.

Example results:
Incoming: Query: CLhep predicted at 10 µM; subject: C[C@@]1(O)CC[C@H]2[C@H](CC[C@@H]3[C@@H]2CC[C@]2(C)[C@@H](C(=O)Cn4cc5ccncc5n4)CC[C@@H]32)C1
Outgoing: 33.8

Incoming: Query: CLhep predicted at 10 µM; subject: C[C@@]1(O)CC[C@H]2[C@H](CC[C@@H]3[C@@H]2CC[C@]2(C)[C@@H](C(=O)Cn4ncnn4)CC[C@@H]32)C1
Outgoing: 67.5

More entries:
Incoming: Query: CLhep predicted at 10 µM; subject: CC(=O)[C@H]1CC[C@H]2[C@@H]3CC[C@H]4C[C@H](O)CC[C@]4(C)[C@H]3CC[C@]12C [BREXANOLONE]
Outgoing: 67.5

Incoming: Query: CLhep predicted at 10 µM; subject: CC(=O)[C@H]1CC[C@H]2[C@@H]3CC[C@H]4C[C@](C)(O)CC[C@]4(C)[C@H]3CC[C@]12C [GANAXOLONE]
Outgoing: 67.5

Incoming: Query: CLhep predicted at 10 µM; subject: CC(=O)[C@H]1CC[C@H]2[C@@H]3CC[C@H]4C[C@](C)(O)CC[C@@H]4[C@H]3CC[C@]12C
Outgoing: 67.5

Incoming: Query: CLhep predicted at 10 µM; subject: C[C@@]1(O)CC[C@H]2[C@H](CC[C@@H]3[C@@H]2CC[C@]2(C)[C@@H](C(=O)Cn4nccn4)CC[C@@H]32)C1
Outgoing: 67.5

---

- METHOD_DESCRIPTION: Retention time of the compound by LC-MS analysis
- Assay type: physicochemical
Criterion: Retention_time strictly under 0.9 min. Met: fulfilled. Not met: not fulfilled.

Examples with answers:
Incoming: For this compound, is Retention_time lower than 0.9 min? C[C@@]1(O)CC[C@H]2[C@H](CC[C@@H]3[C@@H]2CC[C@]2(C)[C@@H](C(=O)CN4CCCC4)CC[C@@H]32)C1
Outgoing: fulfilled

Incoming: For this compound, is Retention_time lower than 0.9 min? C[C@@]1(O)CC[C@H]2[C@@H](CC[C@@H]3[C@@H]2CC[C@]2(C)[C@@H](C(=O)CN4CCCC4)CC[C@@H]32)C1
Outgoing: fulfilled

Incoming: For this compound, is Retention_time lower than 0.9 min? C[C@@]1(O)CC[C@H]2[C@H](CC[C@@H]3[C@@H]2CC[C@]2(C)[C@@H](C(=O)Cn4cc5ncccc5n4)CC[C@@H]32)C1
Outgoing: fulfilled

Incoming: For this compound, is Retention_time lower than 0.9 min? C[C@@]1(O)CC[C@H]2[C@@H](CC[C@@H]3[C@@H]2CC[C@]2(C)[C@@H](C(=O)Cn4cnnn4)CC[C@@H]32)C1
Outgoing: fulfilled

Incoming: For this compound, is Retention_time lower than 0.9 min? C[C@@]1(O)CC[C@H]2[C@@H](CC[C@@H]3[C@@H]2CC[C@]2(C)[C@@H](C(=O)Cn4ccnn4)CC[C@@H]32)C1
Outgoing: fulfilled

Incoming: For this compound, is Retention_time lower than 0.9 min? C[C@@]1(O)CC[C@H]2[C@H](CC[C@@H]3[C@@H]2CC[C@]2(C)[C@@H](C(=O)Cn4cnnn4)CC[C@@H]32)C1
Outgoing: fulfilled

Incoming: For this compound, is Retention_time lower than 0.9 min? C[C@@]1(O)CC[C@H]2[C@H](CC[C@@H]3[C@@H]2CC[C@]2(C)[C@@H](C(=O)Cn4cncn4)CC[C@@H]32)C1
Outgoing: fulfilled

Incoming: For this compound, is Retention_time lower than 0.9 min? C[C@@]1(O)CC[C@H]2[C@H](CC[C@@H]3[C@@H]2CC[C@]2(C)[C@@H](C(=O)Cn4cc5cnccc5n4)CC[C@@H]32)C1
Outgoing: not fulfilled

Incoming: For this compound, is Retention_time lower than 0.9 min? C[C@@]1(O)CC[C@H]2[C@H](CC[C@@H]3[C@@H]2CC[C@]2(C)[C@@H](C(=O)Cn4ncc5ccccc54)CC[C@@H]32)C1
Outgoing: not fulfilled

Incoming: For this compound, is Retention_time lower than 0.9 min? C[C@@]1(O)CC[C@H]2[C@H](CC[C@@H]3[C@@H]2CC[C@]2(C)[C@@H](C(=O)Cn4ncnn4)CC[C@@H]32)C1
Outgoing: fulfilled

More entries:
Incoming: For this compound, is Retention_time lower than 0.9 min? C[C@@]1(O)CC[C@H]2[C@H](CC[C@@H]3[C@@H]2CC[C@]2(C)[C@@H](C(=O)Cn4nccn4)CC[C@@H]32)C1
Outgoing: fulfilled

Incoming: For this compound, is Retention_time lower than 0.9 min? C[C@@]1(O)CC[C@H]2[C@H](CC[C@@H]3[C@@H]2CC[C@]2(C)[C@@H](C(=O)Cn4ncc5cnccc54)CC[C@@H]32)C1
Outgoing: fulfilled
